# STUDY_SYSTEM: IGF-1R (Homo sapiens)
# Construct: expressed in transfected cells
# MEASUREMENT_PROTOCOL: Example B-1: IGF-1R Assay (PC3 cells stimulated with IGF1, AlphaLISA on cell lysates)
# Format: cell-based
# CONDITION_PARAMETERS: compound two hours, IGF1 200 ng/mL for 30 min, read-out: IC50, Biological Activity against IGF-1R (Table B1)
# Experimental: 50K PC3 cells were seeded on day 1 in 50 μL of media in 96-well plate and incubated overnight at 37° C., 5% CO2. On day 2, all cells were expected to be at 80-90% confluency. […] The media was removed and replaced by 50 μL of 1× lysis buffer from the AlphaLISA kit (with 1× of cOmplete™ protease inhibitor). […] The plates were read in EnVision reader using standard AlphaLISA settings. Compound activity was analyzed using CBIS data analysis suite (Cheminnovation, CA). […]
VALUE_TYPE: IC50

Field: example entries. Status: answers known.
# COMPOUND, IC50
records = [
    ("CC1(C)C(=O)N(c2ccc(SC(F)(F)F)cc2)C(=O)N1Cc1ccnc(NC2COC2)c1", "> 10000 nM"),
    ("CC1(C)C(=O)N(c2ccc(C3(C(F)(F)F)CC3)cc2)C(=O)N1Cc1ccnc(NC2CCS(=O)(=O)C2)c1 (stereo not shown)", "500 to 2000 nM"),
    ("COCC(C)(C)Nc1cc(CN2C(=O)N(c3ccc(C(C)(C)C)cc3)C(=O)C2(C)C)ccn1", "500 to 2000 nM"),
]

[Q] State measured IC50 of the compound CC1(C)C(=O)N(c2ccc(SC(F)(F)F)cc2)C(=O)N1Cc1ccnc2[nH]cnc12 with IGF-1R (Homo sapiens).
[A] ≤ 500 nM

[Q] State measured IC50 of the compound CC1(C)C(=O)N(c2ccc(SC(F)(F)F)cc2)C(=O)N1Cc1ccnc(NC(=O)Nc2ccc(F)cc2)c1 with IGF-1R (Homo sapiens).
[A] ≤ 500 nM

[Q] State measured IC50 of the compound Cc1[nH]c2nccc(CN3C(=O)N(c4ccc(C5(C(F)(F)F)CC5)cc4)C(=O)C3(C)C)c2c1Cl with IGF-1R (Homo sapiens).
[A] ≤ 500 nM

[Q] State measured IC50 of the compound CC1(C)C(=O)N(c2ccc(SC(F)(F)F)cc2)C(=O)N1Cc1ccnc(NCc2ncc[nH]2)c1 with IGF-1R (Homo sapiens).
[A] 500 to 2000 nM

----------
# STUDY_SYSTEM: IGF-1R (Homo sapiens, UniProt P08069)
# Construct: expressed in transfected cells
# Sequence (P08069 31-1367): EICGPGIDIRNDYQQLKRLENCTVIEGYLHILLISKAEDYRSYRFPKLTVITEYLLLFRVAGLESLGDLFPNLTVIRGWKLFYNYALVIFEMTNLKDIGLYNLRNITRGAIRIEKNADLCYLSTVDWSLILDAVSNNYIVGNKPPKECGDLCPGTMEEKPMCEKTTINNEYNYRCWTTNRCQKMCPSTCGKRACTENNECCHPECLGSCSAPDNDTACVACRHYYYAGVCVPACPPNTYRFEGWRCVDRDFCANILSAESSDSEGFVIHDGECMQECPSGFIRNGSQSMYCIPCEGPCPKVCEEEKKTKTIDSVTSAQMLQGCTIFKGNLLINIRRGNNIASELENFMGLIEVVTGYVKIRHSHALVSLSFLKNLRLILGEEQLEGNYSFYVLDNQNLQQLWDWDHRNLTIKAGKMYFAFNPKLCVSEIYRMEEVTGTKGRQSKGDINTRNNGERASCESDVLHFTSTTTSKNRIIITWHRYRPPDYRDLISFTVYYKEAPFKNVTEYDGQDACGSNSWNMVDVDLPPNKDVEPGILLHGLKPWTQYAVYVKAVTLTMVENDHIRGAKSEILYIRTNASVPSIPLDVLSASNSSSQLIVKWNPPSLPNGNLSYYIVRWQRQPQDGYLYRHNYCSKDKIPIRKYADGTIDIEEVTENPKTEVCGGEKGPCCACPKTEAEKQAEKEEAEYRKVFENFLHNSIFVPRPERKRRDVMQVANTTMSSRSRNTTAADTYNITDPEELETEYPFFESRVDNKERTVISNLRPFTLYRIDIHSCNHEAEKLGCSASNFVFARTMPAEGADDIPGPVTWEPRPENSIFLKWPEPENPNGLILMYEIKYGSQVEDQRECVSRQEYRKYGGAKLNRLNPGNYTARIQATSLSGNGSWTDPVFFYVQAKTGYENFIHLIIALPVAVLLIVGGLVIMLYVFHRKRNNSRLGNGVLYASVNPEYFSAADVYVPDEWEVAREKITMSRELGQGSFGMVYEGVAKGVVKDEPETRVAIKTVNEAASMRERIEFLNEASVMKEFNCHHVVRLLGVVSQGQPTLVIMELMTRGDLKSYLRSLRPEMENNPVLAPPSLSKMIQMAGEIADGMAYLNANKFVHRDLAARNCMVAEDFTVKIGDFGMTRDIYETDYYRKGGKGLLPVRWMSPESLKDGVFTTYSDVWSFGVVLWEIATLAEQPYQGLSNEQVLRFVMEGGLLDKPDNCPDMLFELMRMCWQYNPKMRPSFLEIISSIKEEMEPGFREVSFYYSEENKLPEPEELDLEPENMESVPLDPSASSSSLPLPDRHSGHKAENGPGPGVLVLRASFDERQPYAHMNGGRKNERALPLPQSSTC
# MEASUREMENT_PROTOCOL: Example B-1: IGF-1R Assay (PC3 cells stimulated with IGF1, AlphaLISA on cell lysates)
# Type: cell-based
# CONDITION_PARAMETERS: compound two hours, IGF1 200 ng/mL for 30 min, read-out: IC50, Biological Activity against IGF-1R (Table B1)
VALUE_TYPE: IC50

Field: example entries. Status: answers known.
# COMPOUND, TEST_VALUE
data = [
    ("CC1(C)C(=O)N(c2ccc(SC(F)(F)F)cc2)C(=O)N1Cc1ccnc2[nH]c(C3CC3)cc12 [Compound 15]", "> 10000 nM"),
    ("CC1(C)C(=O)N(c2ccc(C3(C(F)(F)F)CC3)cc2)C(=O)N1Cc1ccnc2c1CC(=O)N2 [Compound 13]", "≤ 500 nM"),
    ("CC(C)Nc1cc(CN2C(=O)N(c3ccc(C4CC45CC5)cc3)C(=O)C2(C)C)ccn1 (stereo not drawn) [Compound 97]", "≤ 500 nM"),
    ("Nc1cc(CN2C(=O)N(c3ccc(SC(F)(F)F)cc3)C(=O)[C@@H]2C2CCCCC2)ccn1 [Compound 296]", "> 10000 nM"),
    ("CC(C)(C)c1ccc(N2C(=O)N(Cc3ccnc4[nH]ccc34)C(C)(C)C2=O)cc1 [Compound 4]", "≤ 500 nM"),
    ("CC1(C)C(=O)N(c2ccc3c(C(F)(F)F)n[nH]c3c2)C(=O)N1Cc1ccnc(N)c1 [Compound 254]", "500 to 2000 nM"),
    ("CC1(C)C(=O)N(c2ccc(C(C)(C)C(F)(F)F)cc2)C(=O)N1Cc1ccnc(N)c1 [Compound 95]", "≤ 500 nM"),
    ("CC(C)Nc1cc(CN2C(=O)N(c3ccc(C45CC(C)(C4)C5)cc3)C(=O)C2(C)C)ccn1 [Compound 112]", "2000 to 10000 nM"),
    ("CC(C)Nc1cc(CN2C(=O)N(c3ccc(SC(F)(F)F)cc3)C(=O)C2(C)C)ncn1 [Compound 379]", "500 to 2000 nM"),
    ("CC(C)Nc1cc(CN2C(=O)N(c3ccc(C4(C#N)CCC4)cc3)C(=O)C2(C)C)ccn1 [Compound 107]", "≤ 500 nM"),
]

[Q] Supply IC50 value. Item: CC(C)Nc1cc(CN2C(=O)N(c3ccc(C4(C(F)(F)F)CCC4)cc3)C(=O)C2(C)C)ccn1 [Compound 115]
[A] ≤ 500 nM

[Q] Supply IC50 value. Item: CC1(C)C(=O)N(c2ccc(SC(F)(F)F)cc2)C(=O)N1Cc1ccnc(NCC(F)F)c1 [Compound 315]
[A] ≤ 500 nM

----------
# STUDY_SYSTEM: IGF-1R (Homo sapiens, UniProt P08069)
# Construct: expressed in transfected cells
# MEASUREMENT_PROTOCOL: Example B-2: IGF-1R Assay (PathHunter cell lines, EC80 agonist challenge, chemiluminescent detection)
# Type: cell-based
# CONDITION_PARAMETERS: PathHunter cells, compound 60 minutes at 37° C., EC80 agonist 3 hours; read-out: IC50, Biological Activity against IGF-1R (Table B2)
Reported IC50 values are given for each entry in this list.

Field: example entries. Status: answers known.
# COMPOUND, TEST_VALUE
records = [
    ("Cn1nc(C(F)(F)F)c2ccc(N3C(=O)N(Cc4ccnc(N)c4)C(C)(C)C3=O)cc21", "2000 to 10000 nM"),
    ("CC1(C)C(=O)N(c2ccc(C3(C(F)(F)F)CC3)cc2)C(=O)N1Cc1ccnc(NCc2ncccn2)c1", "≤ 500 nM"),
    ("CC(C)Nc1cc(CN2C(=O)N(c3ccc4c(c3)C(=O)N(C)C4(C)C)C(=O)C2(C)C)ccn1", "2000 to 10000 nM"),
]

[Q] Supply IC50 value. Item: CC1(C)C(=O)N(c2ccc(SC(F)(F)F)cc2)C(=O)N1Cc1ccnc2c1CC(=O)N2
[A] ≤ 500 nM

[Q] Supply IC50 value. Item: CN1CC(C)(C)c2ccc(N3C(=O)N(Cc4ccnc(NC5CCOCC5)c4)C(C)(C)C3=O)cc21
[A] ≤ 500 nM

[Q] Supply IC50 value. Item: CC1(C)C(=O)N(c2ccc3c(c2)N(S(C)(=O)=O)CC32CCC2)C(=O)N1Cc1ccnc(NCC2CC2(F)F)c1 (stereo not shown)
[A] ≤ 500 nM

[Q] Supply IC50 value. Item: CC1(C)C(=O)N(c2ccc3c(c2)N(S(C)(=O)=O)CC32CCC2)C(=O)N1Cc1ccnc(NCc2cccnc2)c1
[A] ≤ 500 nM

----------
# STUDY_SYSTEM: IGF-1R (Homo sapiens, UniProt P08069)
# Construct: expressed in transfected cells
# MEASUREMENT_PROTOCOL: Example B-2: IGF-1R Assay (PathHunter cell lines, EC80 agonist challenge, chemiluminescent detection)
# Format: cell-based
# CONDITION_PARAMETERS: PathHunter cells, compound 60 minutes at 37° C., EC80 agonist 3 hours; read-out: IC50, Biological Activity against IGF-1R (Table B2)
pIC50: −log10 of the molar value.
Reported pIC50 values are given for each entry in this list.

Field: example entries. Status: answers known.
# COMPOUND, STUDY_SYSTEM, pIC50
measured = [
    ("CC1(Nc2cc(CN3C(=O)N(c4ccc(S(=O)(=O)C(F)(F)F)cc4)C(=O)C3(C)C)ccn2)CC1 [Compound 355]", "IGF-1R (Homo sapiens, UniProt P08069)", "≥ 6.30"),
    ("CC(C)Nc1cc(CN2C(=O)N(c3ccc4c(c3)OCC4(C)C)C(=O)C2(C)C)ccn1 [Compound 189]", "IGF-1R (Homo sapiens, UniProt P08069)", "≥ 6.30"),
    ("CC1(C)C(=O)N(c2ccc(C3(C(F)(F)F)CCC3)cc2)C(=O)N1Cc1ccnc(NC2CCOCC2)c1 [Compound 130]", "IGF-1R (Homo sapiens, UniProt P08069)", "≥ 6.30"),
    ("CC1(C)C(=O)N(c2ccc(C3(C(F)(F)F)CC3)cc2)C(=O)N1Cc1ccnc(NC2CCS(=O)(=O)CC2)c1 [Compound 133]", "IGF-1R (Homo sapiens, UniProt P08069)", "5.70 to 6.30"),
    ("CC1(C)CN(S(C)(=O)=O)c2cc(N3C(=O)N(Cc4ccnc(N[C@H]5CCOC[C@@H]5F)c4)C(C)(C)C3=O)ccc21 [Compound 241]", "IGF-1R (Homo sapiens, UniProt P08069)", "≥ 6.30"),
]

[Q] Supply pIC50 value. Item: CC(CF)Nc1cc(CN2C(=O)N(c3ccc(S(=O)(=O)C(F)(F)F)cc3)C(=O)C2(C)C)ccn1 (stereo not shown) [Compound 336]
[A] 5.70 to 6.30

[Q] Supply pIC50 value. Item: CC1(C)CN(S(=O)(=O)C2CC2)c2cc(N3C(=O)N(Cc4ccnc(NC5CCOCC5)c4)C(C)(C)C3=O)ccc21 [Compound 248]
[A] ≥ 6.30
